Activity calls are given as the source filed them.
Parameter Kd, tested on Casein kinase I isoform delta (Homo sapiens, UniProt P48730), listed per item. Further: in the data inactive means no Kd found up to 30 µM.
Sequence (P48730 whole entry, canonical isoform): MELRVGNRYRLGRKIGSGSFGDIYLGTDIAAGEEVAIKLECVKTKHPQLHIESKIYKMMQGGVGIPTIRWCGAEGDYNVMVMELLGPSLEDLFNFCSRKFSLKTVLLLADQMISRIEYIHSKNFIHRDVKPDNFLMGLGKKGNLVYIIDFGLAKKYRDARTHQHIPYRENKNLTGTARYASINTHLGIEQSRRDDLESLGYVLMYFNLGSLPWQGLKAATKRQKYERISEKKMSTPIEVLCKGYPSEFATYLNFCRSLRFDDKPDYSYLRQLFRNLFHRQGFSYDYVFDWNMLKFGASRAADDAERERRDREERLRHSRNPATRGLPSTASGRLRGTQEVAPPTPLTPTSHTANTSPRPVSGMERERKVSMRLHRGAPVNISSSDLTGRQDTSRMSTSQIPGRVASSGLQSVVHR

Some solved entries appear below for comparison.
COc1cc2c(Nc3ccc(Cl)c(Cl)c3F)ncnc2cc1OC[C@@H]1C[C@@H]2CN(C)C[C@@H]2C1	> 30 µM (inactive)
CO[C@H]1C[C@@H]2CC[C@@H](C)[C@@](O)(O2)C(=O)C(=O)N2CCCC[C@H]2C(=O)O[C@H]([C@H](C)C[C@@H]2CC[C@@H](O)[C@H](OC)C2)CC(=O)[C@H](C)/C=C(\C)[C@@H](O)[C@@H](OC)C(=O)[C@H](C)C[C@H](C)/C=C/C=C/C=C/1C	> 30 µM (inactive)

Please find the next molecule below.
Task item: Please report the measured Kd for O=C(Nc1c[nH]nc1-c1nc2cc(CN3CCOCC3)ccc2[nH]1)NC1CC1 tested on Casein kinase I isoform delta (Homo sapiens, UniProt P48730). Further: in the data inactive means no Kd found up to 30 µM.
Reply: > 30 µM (inactive)

# credit: ChEMBL document CHEMBL3991601
